# assay: Cytotoxicity against Influenza B virus (B/Florida/4/2006) infected MDCK cells
# Format: cell-based, Canis lupus familiaris
# cond: dog
Each entry below carries its reported CC50.
property.label: CC50 (µM)

>>> recorded_result("CC(C)C1=C[C@@]23CC[C@@H]4[C@](C)(CCC[C@@]4(C)C(=O)O)[C@H]2C[C@@H]1[C@H]1C(=O)CCC(=O)[C@H]13")
34
>>> recorded_result("COC(=O)[C@]1(C)CCC[C@]2(C)[C@H]3C[C@H]4C(C(C)C)=C[C@]3(CC[C@H]21)[C@@H]1C(=O)CCC2(OCCO2)[C@@H]14")
27

---

Each entry below carries its reported CC50.
# assay: Cytotoxicity against human rhinovirus 2 infected MDCK cells
# Assay type: cell-based, Canis lupus familiaris
# cond: dog, MDCK cells infected with human rhinovirus 2
property.label: CC50 (µM)

>>> recorded_result("COC(=O)[C@]1(C)CCC[C@]2(C)[C@H]3C[C@H]4C(C(C)C)=C[C@]3(CC[C@H]21)[C@@H]1/C(=N/O)CCC2(OCCO2)[C@@H]14")
3.2
>>> recorded_result("COC(=O)[C@H]1[C@@H](C(=O)OC)C2(C(=O)OC)CC[C@@H]3[C@](C)(CCC[C@@]3(C)C(=O)OC)[C@H]2C[C@H]1C(=O)C(C)C (stereo not given in full)")
32
>>> recorded_result("COC(=O)[C@]1(C)CCC[C@]2(C)[C@H]3CC4C(C(C)C)=C[C@]3(CC[C@H]21)[C@@H]1NC(=O)CC[C@H](O)[C@H]41")
28
>>> recorded_result("COC(=O)[C@]1(C)CCC[C@]2(C)[C@H]3C[C@H]4C(C(C)C)=C[C@]3(CC[C@H]21)[C@H]1[C@@H]4[C@@H](OC(=O)CCC(=O)O)CC[C@@H]1OC(=O)CCC(=O)O")
33
>>> recorded_result("COC(=O)[C@H](C)NC(=O)[C@]1(C)CCC[C@]2(C)[C@H]3C[C@H]4C(C(C)C)=C[C@]3(CC[C@H]21)[C@@H]1C(=O)CCC(=O)[C@@H]14")
25

---

# assay: Selectivity index, ratio of CC50 for Influenza A virus (A/Brisbane/10/2007(H3N2)) infected MDCK cells to EC50 for antiviral activity against Influenza A virus (A/Brisbane/10/2007(H3N2))
# Type: toxicity, cell-based
# cond: dog; read-out: Ratio CC50/EC50
property.label: selectivity ratio

>>> recorded_result("COC(=O)[C@]12CCC(=O)[C@H]1[C@@]13C=C(C(C)C)[C@@H]2C[C@@H]1[C@@]1(C)CCC[C@@](C)(C(=O)OC)[C@@H]1CC3")
1
>>> recorded_result("COC(=O)[C@]1(C)CCC[C@]2(C)[C@H]3C[C@H]4C(C(C)C)=C[C@]3(CC[C@H]21)[C@@H]1C(=O)CC[C@H](OC(=O)c2cccnc2)[C@@H]14")
1
>>> recorded_result("CC(C)C1=C[C@@]23CC[C@H]4[C@](C)(COC(=O)/C=C/c5ccccc5)CCC[C@]4(C)[C@H]2C[C@@H]1[C@@H]1[C@H]3[C@@H](OC(=O)/C=C/c2ccccc2)CC[C@@H]1OC(=O)/C=C/c1ccccc1")
1.1
>>> recorded_result("COC(=O)[C@]1(C)CCC[C@]2(C)[C@H]3C[C@H]4C(C(C)C)=C[C@]3(CC[C@H]21)[C@@H]1C(=O)OC(=O)[C@@H]14")
1
>>> recorded_result("CC(C)C1=C[C@@]23CC[C@H]4[C@](C)(CO)CCC[C@]4(C)[C@H]2C[C@@H]1[C@@H]1[C@H]3[C@@H](O)CC[C@@H]1O")
1

Data credit: ChEMBL document CHEMBL3616462
